- Tested on: Caco-2
- testName: Induction of apoptosis in human Caco2 cells at 20 uM after 48 hrs by Hoechst 33258/propidium iodide staining based phase contrast microscopic analysis
- Type: functional
Field: Activity. Provide a value for each of the molecules that follow.
Field: numeric (%). Do not append units.

Prompt line: Consider the molecule "CC(=O)O[C@H]1CC[C@]2(C)[C@H]3CC=C4[C@@H]5CC(C)(C)CC[C@]5(C(=O)OCc5ccccc5)CC[C@@]4(C)[C@]3(C)CC[C@H]2[C@]1(C)/C=N/O" . State its measured Activity.
Response line: 19

Prompt line: Provide one value: measured Activity of "CC(=O)O[C@H]1CC[C@]2(C)[C@H]3CC=C4[C@@H]5CC(C)(C)CC[C@]5(C(=O)O)CC[C@@]4(C)[C@]3(C)CC[C@H]2[C@]1(C)/C=N\O"
Response line: 0

Prompt line: Give Activity for the following molecule: "CC1(C)CC[C@]2(C(=O)OCc3ccccc3)CC[C@]3(C)C(=CC[C@@H]4[C@@]5(C)CC[C@H](O)[C@@](C)(C=O)[C@@H]5CC[C@]43C)[C@@H]2C1"
Response line: 1

---

For each of the compounds below, state its IC50.
- testName: Antiproliferative activity against human Saos2 cells after 24 and 72 hrs by MTT assay
- Type: functional, cell-based
- measurementConditions: SAOS-2
Response body: numeric value in µM, unit text excluded.

Prompt line: State its IC50 for this compound: "CC1(C)CC[C@]2(C(=O)O)CC[C@]3(C)C(=CC[C@@H]4[C@@]5(C)CC[C@H](O)[C@@](C)(C=O)[C@@H]5CC[C@]43C)[C@@H]2C1"
Response line: 7.85

Prompt line: Item "CC1(C)CC[C@]2(C(=O)OCc3ccccc3)CC[C@]3(C)C(=CC[C@@H]4[C@@]5(C)CC[C@H](O)[C@@](C)(C=O)[C@@H]5CC[C@]43C)[C@@H]2C1" : provide IC50
Response line: 12.7

Prompt line: Tell me its IC50 given "CC1(C)CC[C@]2(C(=O)OCc3ccccc3)CC[C@]3(C)C(=CC[C@@H]4[C@@]5(C)CC[C@H](O)[C@@](C)(/C=N/NC(N)=S)[C@@H]5CC[C@]43C)[C@@H]2C1" as the entry.
Response line: 6.97

Prompt line: Tell me IC50 reported for "CC1(C)CC[C@]2(C(=O)OCc3ccccc3)CC[C@]3(C)C(=CC[C@@H]4[C@@]5(C)CC[C@H](O)[C@@](C)(/C=N/O)[C@@H]5CC[C@]43C)[C@@H]2C1"
Response line: 10.3

Prompt line: Provide one value: measured IC50 of "CC(=O)O[C@H]1CC[C@]2(C)[C@H]3CC=C4[C@@H]5CC(C)(C)CC[C@]5(C(=O)OCc5ccccc5)CC[C@@]4(C)[C@]3(C)CC[C@H]2[C@]1(C)C=O"
Response line: 10.7

Prompt line: Hello, please tell me recorded IC50 for this one: CC(=O)O[C@H]1C(=O)[C@@]2(C)[C@H]([C@H](OC(=O)c3ccccc3)[C@]3(O)C[C@H](OC(=O)[C@H](O)[C@@H](NC(=O)c4ccccc4)c4ccccc4)C(C)=C1C3(C)C)[C@]1(OC(C)=O)CO[C@@H]1C[C@@H]2O [PACLITAXEL]
Response line: 0.35

Prompt line: Output measured IC50 for this item: "CC1(C)CC[C@]2(C(=O)O)CC[C@]3(C)C(=CC[C@@H]4[C@@]5(C)CC[C@H](O)[C@@](C)(/C=N/O)[C@@H]5CC[C@]43C)[C@@H]2C1"
Response line: 7.93
